Experiment: log P by HPLC on a reversed-phase column (C 18), EEC Directive 79/831 Annex V.A8
Assay type: physicochemical
Conditions: HPLC, reversed-phase column (C 18), 40° C., 0.1% aqueous formic acid and acetonitrile, linear gradient 10% to 90% acetonitrile
outcome_measure: logP

Example results:
>>> reported("Cn1nc(C(F)F)c(C(=O)N(Cc2cc(F)ccc2C2(C(F)F)CC2)C2CC2)c1Cl")
3.53
>>> reported("Cn1nc(C(F)F)c(C(=O)N(Cc2cc(Br)ccc2C2(C(F)F)CC2)C2CC2)c1Cl")
3.92
>>> reported("Cn1nc(C(F)F)c(C(=S)N(Cc2ccccc2C2(C)CC2)C2CC2)c1Cl")
4.63
>>> reported("Cn1nc(C(F)F)c(C(=O)N(Cc2c(C(F)(F)F)cccc2C2(C)CC2)C2CC2)c1F")
4.46
>>> reported("CCC1(c2cccc(F)c2CN(C(=O)c2c(C(F)F)nn(C)c2F)C2CC2)CC1")
4.19
>>> reported("CCC1(c2ccccc2CN(C(=S)c2c(C(F)F)nn(C)c2F)C2CC2)CC1")
4.85
>>> reported("Cn1nc(C(F)F)c(C(=S)N(Cc2cccc(F)c2C2(C)CC2)C2CC2)c1Cl")
4.64
>>> reported("CC(C)c1ccc(C2(C)CC2)c(CN(C(=O)c2c(C(F)F)nn(C)c2F)C2CC2)c1")
4.61

Here is another molecule to look at.
Exercise: Which measured logP value corresponds to `Cn1nc(C(F)F)c(C(=O)N(Cc2ccccc2C2(C(F)F)CC2)C2CC2)c1F` ?
Key: 3.33

====

Test: log P by HPLC on a reversed-phase column (C 18), EEC Directive 79/831 Annex V.A8
Format: physicochemical
Settings: HPLC, reversed-phase column (C 18), 40° C., 0.1% aqueous formic acid and acetonitrile, linear gradient 10% to 90% acetonitrile
outcome_measure: logP
// print number alone

>>> reported("Cn1nc(C(F)F)c(C(=S)N(Cc2cc(Cl)ccc2C2(C)CC2)C2CC2)c1Cl")
5.03
>>> reported("Cn1nc(C(F)F)c(C(=O)N(Cc2ccc(-c3ccccc3)cc2C2(C)CC2)C2CC2)c1F")
4.93
>>> reported("Cn1nc(C(F)F)c(C(=O)N(Cc2c(F)cccc2C2(C)CC2)C2CC2)c1F")
3.79
>>> reported("CCCC1(c2cc(Cl)ccc2CN(C(=O)c2c(C(F)F)nn(C)c2F)C2CC2)CC1")
5.14
>>> reported("Cn1nc(C(F)F)c(C(=O)N(Cc2ccc(Oc3ccccc3)cc2C2(C)CC2)C2CC2)c1F")
4.91
>>> reported("Cc1ccc(C2(C)CC2Cl)c(CN(C(=O)c2c(C(F)F)nn(C)c2F)C2CC2)c1Cl (stereo not drawn)")
4.58
>>> reported("Cn1nc(C(F)F)c(C(=O)N(Cc2ccc(F)cc2C2(C)CC2)C2CC2)c1F")
3.92
>>> reported("CCC1(c2cc(Cl)ccc2CN(C(=O)c2c(C(F)F)nn(C)c2F)C2CC2)CC1")
4.67
>>> reported("Cn1nc(C(F)F)c(C(=O)N(Cc2cc(F)c(F)cc2C2(C)CC2)C2CC2)c1Cl")
4.16
>>> reported("Cn1nc(C(F)F)c(C(=S)N(Cc2ccc(F)cc2C2(C)CC2)C2CC2)c1Cl")
4.74

Here is another compound to look at.
Exercise: Which measured logP value corresponds to `Cn1nc(C(F)F)c(C(=O)N(Cc2cc(F)c(F)cc2C2(C)CC2)C2CC2)c1F` ?
Key: 4.01

====

Experiment: log P by HPLC on a reversed-phase column (C 18), EEC Directive 79/831 Annex V.A8
Format: physicochemical
Settings: HPLC on reversed-phase column (C 18), 40° C., 0.1% aqueous formic acid and acetonitrile, linear gradient 10% to 90% acetonitrile
Here, each record is paired with measured logP data.
// print number alone

Exercise: Which measured logP value corresponds to `COCC1(c2ccc(C)cc2CN(C(=O)c2c(C(F)F)nn(C)c2Cl)C2CC2)CC1` ?
Key: 3.68

Exercise: What about `Cn1nc(C(F)F)c(C(=O)N(Cc2cc(Cl)ccc2C2(C(F)(F)F)CC2)C2CC2)c1F` ?
Key: 4.13

Exercise: What about Cn1nc(C(F)F)c(C(=O)N(Cc2cc(Cl)ccc2C2(C)CC2(Cl)Cl)C2CC2)c1F (racemic) ?
Key: 4.39

Exercise: What about Cc1ccc(C2(C)CC2(Cl)Cl)c(CN(C(=O)c2c(C(F)F)nn(C)c2F)C2CC2)c1F (racemic) ?
Key: 4.41

====

Assay: log P by HPLC on a reversed-phase column (C 18), EEC Directive 79/831 Annex V.A8
Type: physicochemical
Conditions: HPLC, reversed-phase column (C 18), 40° C., 0.1% aqueous formic acid and acetonitrile, linear gradient 10% to 90% acetonitrile
Here, each record is paired with measured logP data.
// print number alone

Example results:
>>> reported("Cc1ccc(C2(C(C)C)CC2)c(CN(C(=O)c2c(C(F)F)nn(C)c2F)C2CC2)c1")
4.95
>>> reported("COC1(c2ccc(C(C)C)cc2CN(C(=O)c2c(C(F)F)nn(C)c2F)C2CC2)CC1")
4.29
>>> reported("Cn1nc(C(F)F)c(C(=O)N(Cc2ccc(Cl)cc2C2(C)CC2)C2CC2)c1F")
4.43

Exercise: Which measured logP value corresponds to `C=C(C)c1ccc(CN(C(=O)c2c(C(F)F)nn(C)c2F)C2CC2)c(C2(C)CC2)c1` ?
Key: 4.73

Exercise: What about `CCC1(c2ccc(C(F)(F)F)cc2CN(C(=O)c2c(C(F)F)nn(C)c2Cl)C2CC2)CC1` ?
Key: 4.85

Exercise: What about `Cn1nc(C(F)F)c(C(=O)N(Cc2ccccc2C2(C(F)F)CC2)C2CC2)c1Cl` ?
Key: 3.46

Exercise: What about `Cc1ccc(C2(C)CC2)c(CN(C(=O)c2c(C(F)F)nn(C)c2F)C2CC2)c1Cl` ?
Key: 4.51

Exercise: What about `CCC1(c2cc(C(F)(F)F)ccc2CN(C(=O)c2c(C(F)F)nn(C)c2F)C2CC2)CC1` ?
Key: 4.75

====

Test: log P by HPLC on a reversed-phase column (C 18), EEC Directive 79/831 Annex V.A8
Format: physicochemical
Conditions: reversed-phase HPLC column (C 18); HPLC, reversed-phase column (C 18), 40° C., 0.1% aqueous formic acid and acetonitrile, linear gradient 10% to 90% acetonitrile
outcome_measure: chromatographic logP

Exercise: Which measured chromatographic logP value corresponds to `Cn1nc(C(F)F)c(C(=O)N(Cc2cc(Cl)ccc2C2(C)CC2)C2CC2)c1F` ?
Key: 4.26

====

Here, each record is paired with measured logP data.
Test: log P by HPLC on a reversed-phase column (C 18), EEC Directive 79/831 Annex V.A8
Type: physicochemical
Settings: HPLC, reversed-phase column (C 18), 40° C., 0.1% aqueous formic acid and acetonitrile, linear gradient 10% to 90% acetonitrile
Description: In table 1, the log P values were determined in accordance with EEC Directive 79/831 Annex V.A8 by HPLC (High Performance Liquid Chromatography) on a reversed-phase column (C 18), using the method described below: Temperature: 40° C.; Mobile phases: 0.1% aqueous formic acid and acetonitrile; linear gradient from 10% acetonitrile to 90% acetonitrile. […]
// print number alone

Example results:
>>> reported("Cc1ccc(C2(C)CC2)c(CN(C(=O)c2c(C(F)F)nn(C)c2Cl)C2(C#N)CC2)c1 [I.078]")
3.87
>>> reported("COc1ccc(CN(C(=S)c2c(C(F)F)nn(C)c2F)C2CC2)c(C2(C)CC2)c1 [I.030]")
4.34
>>> reported("CCC1(c2ccc(C)cc2CN(C(=O)c2c(C(F)F)nn(C)c2Cl)C2CC2)CC1 [I.112]")
4.77

Here is another molecule to look at.
Exercise: Which measured logP value corresponds to Cn1nc(C(F)F)c(C(=S)N(Cc2cc(Cl)ccc2C2(C)CC2)C2CC2)c1F [I.062] ?
Key: 4.82

====

Assay: log P by HPLC on a reversed-phase column (C 18), EEC Directive 79/831 Annex V.A8
Format: physicochemical
Details: HPLC, reversed-phase column (C 18), 40° C., 0.1% aqueous formic acid and acetonitrile, linear gradient 10% to 90% acetonitrile
outcome_measure: logP
// print number alone

Example results:
>>> reported("Cc1ccc(C2(C)CC2)c(CN(C(=O)c2c(C(F)F)nn(C)c2Cl)C2CC2)c1")
4.36
>>> reported("COC1(c2ccc(Cl)cc2CN(C(=O)c2c(C(F)F)nn(C)c2F)C2CC2)CC1")
3.67
>>> reported("COc1cc(CN(C(=S)c2c(C(F)F)nn(C)c2Cl)C2CC2)c(C2(C)CC2)cc1OC")
4.09

Here is another compound to look at.
Exercise: Which measured logP value corresponds to `Cn1nc(C(F)F)c(C(=O)N(Cc2ccc3c(c2C2(C)CC2)OCO3)C2CC2)c1Cl` ?
Key: 3.67
